- Tested on: Streptococcus pneumoniae
- Test description: Antibacterial activity against ermB-inducible resistant Streptococcus pneumoniae after 20 hrs by agar dilution method
- Type: functional
Measurement label: MIC (µg/mL)
One number for each entry, in µg/mL.

In the examples that follow, each entry is paired with its recorded MIC.
CCC(=O)O[C@@H]1CC(=O)O[C@H](C)C[C@H](O)[C@H](N(C)CCCc2cnc3ccccc3c2)/C=C/[C@H](OC(C)=O)[C@H](C)C[C@H](CC=O)[C@H](O[C@@H]2O[C@H](C)[C@@H](O[C@H]3C[C@@](C)(O)[C@@H](OC(=O)CC)[C@H](C)O3)[C@H](N(C)C)[C@H]2O)[C@H]1OC | 12.5
CCC(=O)O[C@@H]1CC(=O)O[C@H](C)C[C@H](O)[C@H](N(C)CCCCCCc2ccccc2)/C=C/[C@H](OC(C)=O)[C@H](C)C[C@H](CC=O)[C@H](O[C@@H]2O[C@H](C)[C@@H](O[C@H]3C[C@@](C)(O)[C@@H](OC(=O)CC)[C@H](C)O3)[C@H](N(C)C)[C@H]2O)[C@H]1OC | 6.25
CCC(=O)O[C@@H]1CC(=O)O[C@H](C)C[C@@H]2OC(=O)N(CCc3ccccc3)[C@@H]2/C=C/[C@H](OC(C)=O)[C@H](C)C[C@H](CC=O)[C@H](O[C@@H]2O[C@H](C)[C@@H](O[C@H]3C[C@@](C)(O)[C@@H](OC(=O)CC)[C@H](C)O3)[C@H](N(C)C)[C@H]2O)[C@H]1OC | 50
CCC(=O)O[C@@H]1CC(=O)O[C@H](C)C[C@H](O)[C@H](N(C)CCCCc2ccccc2)/C=C/[C@H](OC(C)=O)[C@H](C)C[C@H](CC=O)[C@H](O[C@@H]2O[C@H](C)[C@@H](O[C@H]3C[C@@](C)(O)[C@@H](OC(=O)CC)[C@H](C)O3)[C@H](N(C)C)[C@H]2O)[C@H]1OC | 12.5
CCC(=O)O[C@@H]1CC(=O)O[C@H](C)C/C=C/C=C/[C@H](OC(C)=O)[C@H](C)C[C@H](CC=O)[C@H](O[C@@H]2O[C@H](C)[C@@H](O[C@H]3C[C@@](C)(OC(C)=O)[C@@H](OC(=O)CC)[C@H](C)O3)[C@H](N(C)C)[C@H]2O)[C@H]1OC | 6.25

Quick one: give me MIC for each item below, same order please.
1. CCC(=O)O[C@@H]1CC(=O)O[C@H](C)C[C@H](O)[C@H](N(C)CCCCCCCc2ccccc2)/C=C/[C@H](OC(C)=O)[C@H](C)C[C@H](CC=O)[C@H](O[C@@H]2O[C@H](C)[C@@H](O[C@H]3C[C@@](C)(O)[C@@H](OC(=O)CC)[C@H](C)O3)[C@H](N(C)C)[C@H]2O)[C@H]1OC
2. CCC(=O)O[C@@H]1CC(=O)O[C@H](C)C[C@H](O)[C@H](N(C)CCCc2ccccc2)/C=C/[C@H](OC(C)=O)[C@H](C)C[C@H](CC=O)[C@H](O[C@@H]2O[C@H](C)[C@@H](O[C@H]3C[C@@](C)(OC(C)=O)[C@@H](OC(=O)CC)[C@H](C)O3)[C@H](N(C)C)[C@H]2O)[C@H]1OC

OUT:
12.5
1.56

----------
- System: Moraxella catarrhalis
- Test description: Antibacterial activity against standard Moraxella catarrhalis after 20 hrs by agar dilution method
- Format: functional
Please go through the items and note down their MIC.
Give bare numbers, in µg/mL.

CCC(=O)O[C@@H]1CC(=O)O[C@H](C)C[C@H](O)[C@H](N(C)C)/C=C/[C@H](OC(C)=O)[C@H](C)C[C@H](CC=O)[C@H](O[C@@H]2O[C@H](C)[C@@H](O[C@H]3C[C@@](C)(O)[C@@H](OC(=O)CC)[C@H](C)O3)[C@H](N(C)C)[C@H]2O)[C@H]1OC | 1.56

State recorded MIC for all listed molecules.
1. CCC(=O)O[C@@H]1CC(=O)O[C@H](C)C[C@@H]2OC(=O)N(CCCc3ccccc3)[C@@H]2/C=C/[C@H](OC(C)=O)[C@H](C)C[C@H](CC=O)[C@H](O[C@@H]2O[C@H](C)[C@@H](O[C@H]3C[C@@](C)(O)[C@@H](OC(=O)CC)[C@H](C)O3)[C@H](N(C)C)[C@H]2O)[C@H]1OC
2. CCC(=O)O[C@@H]1CC(=O)O[C@H](C)C[C@H](O)[C@H](N(C)CCCn2cnc(-c3cccnc3)c2)/C=C/[C@H](OC(C)=O)[C@H](C)C[C@H](CC=O)[C@H](O[C@@H]2O[C@H](C)[C@@H](O[C@H]3C[C@@](C)(O)[C@@H](OC(=O)CC)[C@H](C)O3)[C@H](N(C)C)[C@H]2O)[C@H]1OC
3. CCC(=O)O[C@@H]1CC(=O)O[C@H](C)C[C@H](O)[C@H](N(C)CCCc2ccnc3ccccc23)/C=C/[C@H](OC(C)=O)[C@H](C)C[C@H](CC=O)[C@H](O[C@@H]2O[C@H](C)[C@@H](O)[C@H](N(C)C)[C@H]2O)[C@H]1OC

OUT:
1. 1.56
2. 1.56
3. 0.05

----------
- Tested on: Streptococcus pyogenes
- Test description: Antibacterial activity against standard Streptococcus pyogenes after 20 hrs by agar dilution method
- Assay type: functional
Measurement label: MIC (µg/mL)
Numbers only, in µg/mL.

These recorded examples may help you get a feel for the data.
CCC(=O)O[C@@H]1CC(=O)O[C@H](C)C[C@H](O)[C@H](N(C)CCCc2ccccc2)/C=C/[C@H](OC(C)=O)[C@H](C)C[C@H](CC=O)[C@H](O[C@@H]2O[C@H](C)[C@@H](O)[C@H](N(C)C)[C@H]2O)[C@H]1OC | 0.39
CCC(=O)O[C@@H]1CC(=O)O[C@H](C)C[C@H](O)[C@H](N(C)CCCc2ccnc3ccccc23)/C=C/[C@H](OC(C)=O)[C@H](C)C[C@H](CC=O)[C@H](O[C@@H]2O[C@H](C)[C@@H](O[C@H]3C[C@@](C)(O)[C@@H](OC(=O)CC)[C@H](C)O3)[C@H](N(C)C)[C@H]2O)[C@H]1OC | 0.05
CCC(=O)O[C@@H]1CC(=O)O[C@H](C)C[C@H](O)[C@H](N(C)CCCc2cccc3ccccc23)/C=C/[C@H](OC(C)=O)[C@H](C)C[C@H](CC=O)[C@H](O[C@@H]2O[C@H](C)[C@@H](O)[C@H](N(C)C)[C@H]2O)[C@H]1OC | 0.1
CCC(=O)O[C@@H]1CC(=O)O[C@H](C)C/C=C/C=C/[C@H](OC(C)=O)[C@H](C)C[C@H](CC=O)[C@H](O[C@@H]2O[C@H](C)[C@@H](O[C@H]3C[C@@](C)(OC(C)=O)[C@@H](OC(=O)CC)[C@H](C)O3)[C@H](N(C)C)[C@H]2O)[C@H]1OC | 0.1
CCC(=O)O[C@@H]1CC(=O)O[C@H](C)C[C@H](O)[C@H](N(C)CCCc2ccnc3ccccc23)/C=C/[C@H](OC(C)=O)[C@H](C)C[C@H](CC=O)[C@H](O[C@@H]2O[C@H](C)[C@@H](O)[C@H](N(C)C)[C@H]2O)[C@H]1OC | 0.1
CCC(=O)O[C@@H]1CC(=O)O[C@H](C)C[C@H](O)[C@H](N(C)CCCc2cnc3ccccc3c2)/C=C/[C@H](OC(C)=O)[C@H](C)C[C@H](CC=O)[C@H](O[C@@H]2O[C@H](C)[C@@H](O)[C@H](N(C)C)[C@H]2O)[C@H]1OC | 0.78
CCC(=O)O[C@@H]1CC(=O)O[C@H](C)C[C@H](O)[C@H](N(C)CCCc2ccccc2)/C=C/[C@H](OC(C)=O)[C@H](C)C[C@H](CC=O)[C@H](O[C@@H]2O[C@H](C)[C@@H](O[C@H]3C[C@@](C)(OC(C)=O)[C@@H](OC(=O)CC)[C@H](C)O3)[C@H](N(C)C)[C@H]2O)[C@H]1OC | 0.05
CCC(=O)O[C@@H]1CC(=O)O[C@H](C)C[C@H](O)[C@H](N(C)CCCc2cccc3ccccc23)/C=C/[C@H](OC(C)=O)[C@H](C)C[C@H](CC=O)[C@H](O[C@@H]2O[C@H](C)[C@@H](O[C@H]3C[C@@](C)(O)[C@@H](OC(=O)CC)[C@H](C)O3)[C@H](N(C)C)[C@H]2O)[C@H]1OC | 0.1

Value sought for every listed compound: MIC.
1. CCC(=O)O[C@@H]1CC(=O)O[C@H](C)C[C@H](O)[C@H](N(C)C)/C=C/[C@H](OC(C)=O)[C@H](C)C[C@H](CC=O)[C@H](O[C@@H]2O[C@H](C)[C@@H](O[C@H]3C[C@@](C)(O)[C@@H](OC(=O)CC)[C@H](C)O3)[C@H](N(C)C)[C@H]2O)[C@H]1OC
2. CCC(=O)O[C@@H]1CC(=O)O[C@H](C)C[C@H](O)[C@H](N(C)CCCCCCc2ccccc2)/C=C/[C@H](OC(C)=O)[C@H](C)C[C@H](CC=O)[C@H](O[C@@H]2O[C@H](C)[C@@H](O[C@H]3C[C@@](C)(O)[C@@H](OC(=O)CC)[C@H](C)O3)[C@H](N(C)C)[C@H]2O)[C@H]1OC
3. CCC(=O)O[C@@H]1CC(=O)O[C@H](C)C[C@H](O)[C@H](N(C)CCCn2cnc(-c3cccnc3)c2)/C=C/[C@H](OC(C)=O)[C@H](C)C[C@H](CC=O)[C@H](O[C@@H]2O[C@H](C)[C@@H](O[C@H]3C[C@@](C)(O)[C@@H](OC(=O)CC)[C@H](C)O3)[C@H](N(C)C)[C@H]2O)[C@H]1OC
4. CCC(=O)O[C@@H]1CC(=O)O[C@H](C)C[C@H](O)[C@H](N(C)CCCc2cnc3ccccc3c2)/C=C/[C@H](OC(C)=O)[C@H](C)C[C@H](CC=O)[C@H](O[C@@H]2O[C@H](C)[C@@H](O[C@H]3C[C@@](C)(O)[C@@H](OC(=O)CC)[C@H](C)O3)[C@H](N(C)C)[C@H]2O)[C@H]1OC

OUT:
1: 0.2; 2: 0.2; 3: 0.1; 4: 0.1

The values you see were collected from ChEMBL document CHEMBL1157144.
